molecular target: human 5-HT7B (h5-HT7b) receptors (Homo sapiens); construct: expressed in transfected cells; assay: Competition radioligand binding, h5-HT7b ([3H]5-CT); conditions: membranes of HEK 293 cells, 2 hr 37° C., read-out: Ki (nM) 5-HT7
Sequence (P34969 1-432 limits assumed): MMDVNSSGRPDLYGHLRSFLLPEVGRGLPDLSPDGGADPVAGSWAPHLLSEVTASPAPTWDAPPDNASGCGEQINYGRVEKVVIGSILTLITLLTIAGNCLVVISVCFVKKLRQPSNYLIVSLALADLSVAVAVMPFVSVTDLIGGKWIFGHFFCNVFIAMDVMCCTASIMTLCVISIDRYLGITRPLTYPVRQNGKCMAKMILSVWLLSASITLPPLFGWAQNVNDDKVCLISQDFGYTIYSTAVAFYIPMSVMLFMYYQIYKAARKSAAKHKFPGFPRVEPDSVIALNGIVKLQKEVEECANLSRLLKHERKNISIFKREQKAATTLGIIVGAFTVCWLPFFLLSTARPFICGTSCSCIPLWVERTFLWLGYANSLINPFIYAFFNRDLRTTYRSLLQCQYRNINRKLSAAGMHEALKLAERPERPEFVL
ENDPOINT: Ki (nM)

[[record]]
compound = "Cc1c(CN(CC[C@@H]2CCCN2C)Cc2ccc(Cl)cc2)sc2ccccc12"
units_symbol = "nM"
reading = 27

[[record]]
compound = "COc1cccc(CN(CCC2CCCN2C)Cc2ccccc2)c1 (stereo not drawn)"
units_symbol = "nM"
reading = 56

[[record]]
compound = "CN1CCC[C@H]1CCN(Cc1cccc(O)c1)Cc1ccc2ccccc2c1"
units_symbol = "nM"
reading = 8.6

[[record]]
compound = "CN1CCC[C@H]1CCN(Cc1cccc(O)c1)Cc1cccc(O)c1"
units_symbol = "nM"
reading = 9.7


(1) CN1CCCC1CCN(Cc1ccccc1)Cc1cccc(O)c1 (stereo not drawn)
(2) C[C@H](CN(CC[C@@H]1CCCN1C)Cc1ccc(Cl)cc1)c1ccccc1
Prompt: Hi, I'm comparing two records. Which one has the lower Ki, 1 or 2 ? // caller expects the label of the chosen entry
Completion: 1

(1) CN1CCC[C@H]1CCN(Cc1ccc(Cl)cc1)Cc1ccc2c(c1)Cc1ccccc1-2
(2) Cc1ccc(CN(CC[C@@H]2CCCN2C)Cc2ccccc2)cc1
(3) CSc1ccc(CN(CCC2CCCN2C)Cc2ccccc2)cc1 (stereo not drawn)
Prompt: Endpoint returns the given compounds ordered by ascending Ki. Thanks in advance for listing the labels in the requested order.
Completion: 2, 1, 3

###

biological target: human D2S dopamine (hD2S-DA) receptors (Homo sapiens); assay: Competition radioligand binding, hD2s DA ([3H]Spiperone)
Sequence (P14416 1-414 isoform P14416-2): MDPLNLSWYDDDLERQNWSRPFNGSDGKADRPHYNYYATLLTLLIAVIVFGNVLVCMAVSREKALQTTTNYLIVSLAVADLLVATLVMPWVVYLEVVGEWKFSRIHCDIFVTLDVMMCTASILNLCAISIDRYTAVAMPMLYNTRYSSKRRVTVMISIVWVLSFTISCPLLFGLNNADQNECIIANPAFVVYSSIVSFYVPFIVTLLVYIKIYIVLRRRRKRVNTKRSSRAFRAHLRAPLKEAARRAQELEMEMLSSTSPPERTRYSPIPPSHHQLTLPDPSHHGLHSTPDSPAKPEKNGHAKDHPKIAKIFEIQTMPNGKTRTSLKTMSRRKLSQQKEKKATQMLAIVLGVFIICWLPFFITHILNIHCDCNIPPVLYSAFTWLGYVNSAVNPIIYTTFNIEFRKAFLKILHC
pKi: −log10 of the molar value.
ENDPOINT: pKi

[[record]]
molecule = "Cc1ccc(CN(CC[C@H]2CCCN2C)Cc2ccc(C)cc2)cc1"
endpoint = "pKi"
reading = 6.70


(1) CN1CCC[C@H]1CCN(Cc1cccc(O)c1)Cc1ccc2ccccc2c1
(2) Cc1ccc(CN(CCC2CCCN2C)Cc2ccc(C)cc2)cc1 (racemic)
(3) CN1CCCC1CCN(Cc1ccccc1)Cc1ccccc1 (racemic)
Prompt: Endpoint returns the given molecules ordered by ascending pKi. Thanks in advance for listing the labels in the requested order.
Completion: 1, 3, 2

(I) Cc1ccc(CN(CC[C@@H]2CCCN2C)Cc2ccc(C)cc2)cc1
(II) CC(C)c1ccc(CN(CCC2CCCN2C)Cc2ccccc2)cc1 (centres unmarked)
(III) COc1cccc(CN(CC[C@@H]2CCCN2C)Cc2ccc(Cl)cc2)c1
(IV) CN1CCCC1CCN(Cc1ccccc1)Cc1ccc(F)cc1 (centres unmarked)
Prompt: Endpoint returns the given molecules ordered by ascending pKi. Thanks in advance for listing the labels in the requested order.
Completion: III, II, IV, I
(III: 5.83, II: 6.07, IV: 6.40, I: 6.66)

(I) CN1CCC[C@H]1CCN(Cc1ccc(Cl)cc1)Cc1ccc2c(c1)Cc1ccccc1-2
(II) CC(C)c1ccc(CN(CC[C@@H]2CCCN2C)Cc2ccc(Cl)cc2)cc1
(III) CN1CCCC1CCN(Cc1ccccc1)Cc1c(Cl)cccc1Cl (centres unmarked)
(IV) CN1CCCC1CCN(Cc1ccccc1)Cc1cccc2ccccc12 (centres unmarked)
Prompt: Order the items by recorded pKi; the first position goes to the largest value. Thanks in advance for listing the labels in the requested order.
Completion: III, I, IV, II

(P) CCc1ccc(CN(CCC2CCCN2C)Cc2ccccc2)cc1 (centres unmarked)
(Q) CN1CCCC1CCN(Cc1ccccc1)Cc1cccc(O)c1 (centres unmarked)
Prompt: Hi, I'm comparing two records. Which one has the lower pKi, P or Q ? // caller expects the label of the chosen entry
Completion: Q

Reference source for all entries: patent US20060063932A1
